# System: UACC-257 melanoma
# protocol: NCI-60 one-dose screen, 48 h (100 = growth as untreated, 0 = no growth, -100 = all killed)
# settings: 10 µM unless noted
Compounds without any hit were thinned out: in the full panel of roughly 83,000, 20% have a hit.
metric: growth (%)

>>> df
                                   molecule  metric  reported
0  O=C1Nc2c(ccc(Cl)c2Cl)/C1=C/c1cc(Br)c(O)c(Br)c1  growth        40
1  CN1/C(=C\C=C\C2=[N+](C)c3ccccc3C2(C)C)C(C)(C)c2ccccc21  growth       -40
2  CSc1nc2sc3c(c2c(=O)n1-c1ccc(C(C)C)cc1)CCC(=O)C3  growth      84.7
3  CC1=C(NCCN2CCCC2)C(=O)c2c(OCc3cccc(Cl)c3)cccc2C1=O  growth     -42.4
4  Cn1c2ccccc2c2c3c(c4c5ccccc5n(CCCCCC#N)c4c21)C(=O)N(O)C3=O  growth      15.6
5  COc1ccc2nc3cc(Cl)ccc3c(NCCNCC(O)CO)c2c1 (stereo not given)  growth      32.5
6  COc1ccc(C/C(C)=C(\c2ccc(OCCN3CCCCCC3)cc2)c2ccc(OC(=O)C3CCCCC3)cc2)cc1  growth      77.5
7  O=C(Nc1ccc(Oc2ccc(F)cc2)c(Cl)c1)c1cccnc1  growth      91.4
8       COc1cc(-c2cnc3nonc3n2)c(OC)c2c1OCO2  growth      93.6
9       Oc1ccc2c(=S)cc(-c3ccc(Br)cc3)oc2c1O  growth      67.5

* * *

# Tested on: BT-549 breast
# protocol: NCI-60 one-dose screen, 48 h (100 = growth as untreated, 0 = no growth, -100 = all killed)
# settings: 10 µM unless noted
About 83,000 compounds went through this panel and 20% of them were active in at least one assay; those are over-represented in the sample as a whole.
Classification field: enter Satisfied for growth values not below 80%, Not satisfied for values below it.

compound	class_label
CC1=CC(=O)CC(C)(C)[C@@]1(O)/C=C/[C@@H](C)O	Satisfied
CCCCNC(=O)NS(=O)(=O)c1ccc(N2N=C(c3cc(C)ccc3C)CC2c2cc(OC)c(OC)c(OC)c2)cc1 (configuration not stated)	Not satisfied
COc1cc(NCCCCCN=C(N)NC(N)=NC(C)C)c2ncccc2c1	Not satisfied
COC(=O)C12C3C(=O)N(c4ccc(OC)cc4)C(=O)C3C(c3cn(-c4ccccc4)nc3C)N1[C@H](c1cn(-c3ccccc3)nc1C)[C@@H]1C(=O)N(c3ccc(OC)cc3)C(=O)[C@@H]12 (some centres not stated)	Satisfied
O=C(N/N=C/c1ccc(O)cc1O)c1cccnc1	Not satisfied
C=C1CC[C@@H]2[C@](C)(COC(C)=O)[C@H](OC(C)=O)CC[C@@]2(C)[C@@H]1CC(Nc1ccc(S(=O)(=O)Nc2nc(C)cc(C)n2)cc1)C1=CCOC1=O (some centres not stated)	Not satisfied
O=C(C[C@@H](C(=O)NCc1cccc(C(F)(F)F)c1)N1C(=O)[C@@H](N2C(=O)OC[C@@H]2c2ccccc2)[C@H]1/C=C/c1ccccc1)NC1CCN(Cc2ccccc2)CC1	Not satisfied
CCN(CC)c1ccc(/C=C/C2=[N+](C)c3ccccc3C2(C)C)cc1	Not satisfied
C=C1CC[C@@H]2[C@](C)(COC(C)=O)[C@H](OC(C)=O)CC[C@@]2(C)[C@@H]1CC(NCc1ccc(F)cc1)C1=CCOC1=O (some centres not stated)	Not satisfied
COc1c(C2CC(=O)Nc3c2cnn3Cc2ccco2)cc2c(c1OC)OCO2 (configuration not stated)	Not satisfied
c1ccc(CSc2ncnc3nc[nH]c23)nc1	Satisfied
O=C1/C(=C/c2ccc(F)cc2)CN(C(=O)CCN2CCC(=NO)CC2)C/C1=C\c1ccc(F)cc1	Not satisfied
Clc1cccc(Nc2nc(Nc3cnc4ccccc4c3)c3[nH]cnc3n2)c1	Not satisfied
O=C(Nc1ccc(CN2CCOCC2)cc1)c1[nH]ncc1Nc1ncnc2sccc12	Not satisfied
CN[C@@]12CC3(C=CC(=O)C=C3)O[C@]1(Cc1ccc(OC)cc1)N(C)C(=O)N2	Not satisfied
Cc1ccc(Nc2c(C(N)=O)cnc3ccc(-c4csc(N)n4)cc23)cc1	Satisfied
COc1ccc(-c2csc(NC(=O)CN3CCN(c4cc5c(cc4F)c(=O)c(C(=O)O)cn5C4CC4)CC3)n2)cc1	Not satisfied
Cc1cc(Nc2nc(N3CCN(C)CC3)nc3ccccc23)n[nH]1	Not satisfied
CC(=O)Oc1cc2cnc3c4cc(OC(C)=O)c(OC(C)=O)cc4ccc3c2cc1OC(C)=O	Not satisfied
CN1CCCCC1CCN1c2ccccc2Sc2ccc(Br)cc21 (configuration not stated)	Not satisfied
CCN1CCN(Cc2ccc(NC(=O)Nc3nc4ccc(Oc5ccnc(C(=O)NC)c5)cc4s3)cc2C(F)(F)F)CC1	Not satisfied
COc1cnc2c(c1)C(=O)c1c-2n(CCCN2CCNCC2)c(=O)c2cc([N+](=O)[O-])ccc12	Not satisfied
COC1=CC(=O)C(OC)=C(OC)C1=O	Satisfied
COc1ccc(-c2nc(Nc3cc(C)[nH]n3)c3ccccc3n2)cc1	Not satisfied
COc1ccc(/C=C/C(=O)c2ccc(NC(=O)c3cc4cc5ccccc5nc4s3)cc2)cc1OC	Satisfied
COc1c(Cl)cc(Cl)cc1Cl	Satisfied
CC(=O)OCC1OC(OC2=C(CC=C(Cl)Cl)C(=O)c3ccccc3C2=O)C(OC(C)=O)C(OC(C)=O)C1OC(C)=O (configuration not stated)	Not satisfied
COc1ccc(-c2cc(NC(=O)Nc3ccc(O)cc3)no2)cc1	Not satisfied
COC1/C=C\OC2(C)Oc3c(C)c(O)c4c(O)c(c(CN(C)CCO)c(O)c4c3C2=O)NC(=O)/C(C)=C\C=C/C(C)C(O)C(C)C(O)C(C)C(OC(C)=O)C1C (configuration not stated)	Satisfied
CCOC(=O)CC(C)=N	Satisfied
Cc1csc2ccc(Cl)cc12	Satisfied
CN1CCN(c2ccc3nc(-c4ccc5nc(-c6ccc(OCCC(C)(C)C)cc6)[nH]c5c4)[nH]c3c2)CC1	Not satisfied
NS(=O)(=O)c1ccc(-n2ncc3c(=O)[nH]c(CN4CCN(c5cc6c(cc5F)c(=O)c(C(=O)O)cn6C5CC5)CC4)nc32)cc1	Not satisfied
CCN(CC)Cc1cc(Nc2c3ccccc3nc3cc(Cl)ccc23)ccc1O	Not satisfied
CS(=O)(CCCCN=C=S)=NC(=O)c1c(F)c(F)c(F)c(F)c1F (configuration not stated)	Satisfied
